target: SRPK1 (UniProt Q96SB4 1-655); assay: kinase competition assay
Sequence (Q96SB4 whole entry): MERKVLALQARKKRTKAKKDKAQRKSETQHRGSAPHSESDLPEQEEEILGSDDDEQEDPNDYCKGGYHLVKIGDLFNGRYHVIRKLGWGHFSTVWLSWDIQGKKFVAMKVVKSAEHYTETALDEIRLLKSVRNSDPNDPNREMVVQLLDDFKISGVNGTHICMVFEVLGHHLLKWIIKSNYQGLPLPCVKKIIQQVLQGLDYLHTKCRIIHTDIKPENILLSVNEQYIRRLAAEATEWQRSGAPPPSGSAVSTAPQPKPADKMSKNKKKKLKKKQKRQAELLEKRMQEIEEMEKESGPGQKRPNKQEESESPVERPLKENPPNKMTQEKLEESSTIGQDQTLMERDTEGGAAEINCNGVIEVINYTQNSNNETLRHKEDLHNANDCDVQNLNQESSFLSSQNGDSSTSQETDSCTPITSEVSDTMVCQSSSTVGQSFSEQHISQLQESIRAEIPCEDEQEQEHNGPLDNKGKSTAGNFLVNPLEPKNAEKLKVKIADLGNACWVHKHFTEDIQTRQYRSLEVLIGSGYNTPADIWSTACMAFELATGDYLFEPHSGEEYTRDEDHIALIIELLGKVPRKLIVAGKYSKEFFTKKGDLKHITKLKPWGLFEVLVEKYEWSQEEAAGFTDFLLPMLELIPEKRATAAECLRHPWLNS
reported_metric: Ki (nM)

{"binder": "AYIRVKVDGPRSPSYGRSRSRSRSRSRSRSRSNSRSRSYSPRRSRGSP (domain or fragment, UniProt Q07955 188-235, looked up) [SR(188–235)]", "reported_metric": "Ki", "result_unit": "nM", "numeric_value": 110}
{"binder": "AYIRVKVDGPRSPSYGRSRSRSRSRSRSRSRSN (domain or fragment, UniProt Q07955 188-220, looked up) [SR(188–220)]", "reported_metric": "Ki", "result_unit": "nM", "numeric_value": 350}
{"binder": "AYIRVKVDGPRSPSYGRSRSRSRSRSRSRSRSNSRSRSYSP (domain or fragment, UniProt Q07955 188-228, looked up) [SR(188–228)]", "reported_metric": "Ki", "result_unit": "nM", "numeric_value": 190}
